Test system: K562
PROTOCOL_NOTES: NCI tumour cell line growth inhibition, 48 h
Calls of active or inactive are those of the source. No stated cut-off is given here; in the data, active = GI50 up to about 1.1 µM and inactive = higher.
Outcome codes: Y for active, N for inactive

- COMPOUND: "O=C(O[C@H]1[C@@H](O)[C@H](n2cnc3c(Cl)ncnc32)O[C@@H]1COC(c1ccccc1)(c1ccccc1)c1ccccc1)c1ccccc1"
  CLASS_NAME: "N"
- COMPOUND: "O=C1c2ccccc2-c2c1c(-c1cccc(Br)c1)nc1ccc3ccccc3c21"
  CLASS_NAME: "N"
- COMPOUND: "O=C(c1ccccc1)C1C[C@H]2CO[C@H](c3ccccc3)N2C1=O (some centres undefined)"
  CLASS_NAME: "N"
- COMPOUND: "CC(C)(Cl)C(Br)CC/C(CBr)=C(/Cl)CCl.CC(C)(Cl)C(Br)CC/C(CBr)=C(\\Cl)CCl (centres undefined)"
  CLASS_NAME: "Y"
- COMPOUND: "CN1CCN(CCCN)CC1"
  CLASS_NAME: "N"
- COMPOUND: "CO/N=C(\\C)CCC#Cc1ccccc1C(=O)OC"
  CLASS_NAME: "N"
- COMPOUND: "CCOC(=O)c1ccc2c(c1)Cc1cc([N+](=O)[O-])ccc1-2"
  CLASS_NAME: "N"
- COMPOUND: "COC(=O)C(COC(C)=O)NC(=O)/C=C/c1ccc(O)c(OC(C)=O)c1 (centres undefined)"
  CLASS_NAME: "N"
- COMPOUND: "Cc1ccc(C(=O)Nc2ccc(S(=O)(=O)O)c3cc(S(=O)(=O)O)cc(S(=O)(=O)O)c23)cc1NC(=S)Nc1cc(C(=O)Nc2ccc(S(=O)(=O)O)c3cc(S(=O)(=O)O)cc(S(=O)(=O)O)c23)ccc1C"
  CLASS_NAME: "N"
- COMPOUND: "O=C1Oc2ccccc2C(=O)/C1=C/NC(=S)NCCc1ccccc1"
  CLASS_NAME: "N"
- COMPOUND: "Cc1cc2nc(CC(C(F)(F)F)C(F)(F)F)oc2cc1C"
  CLASS_NAME: "Y"
- COMPOUND: "CCCCc1cc2c(C)cc(=O)oc2c(O)c1O"
  CLASS_NAME: "N"
- COMPOUND: "O=C(/C=C1\\C[C@H]2C=Nc3ccccc3C(=O)N2C1)NCCCCCNC(=O)/C=C1\\C[C@H]2C=Nc3ccccc3C(=O)N2C1"
  CLASS_NAME: "N"
- COMPOUND: "CC(C)=CCNc1ncnc2c1ncn2CCC#N"
  CLASS_NAME: "N"

---

System: HOP-62
PROTOCOL_NOTES: NCI tumour cell line growth inhibition, 48 h
Activity calls are given as the source filed them. Cut-off read from the data, not from the text of the source: active = GI50 up to about 1.1 µM and inactive = higher.

- COMPOUND: "CC(C)(C)NC(=O)CCC1C(C(=O)NC(C)(C)C)C2(Cl)C(Cl)=C(Cl)C1(Cl)C2(Cl)Cl (stereo not given)"
  MEASURED_TARGET: "HOP-62"
  GI50: "> 100 µM (inactive)"
- COMPOUND: "O=C1N[C@@H]2c3c(csc3Br)C(=O)[C@@H]2O1"
  MEASURED_TARGET: "HOP-62"
  GI50: "53.2 µM (inactive)"
- COMPOUND: "COc1ccc(-c2c(N)n(-c3cccc(C(=O)O)c3)c(=O)c3cc([N+](=O)[O-])ccc23)cc1"
  MEASURED_TARGET: "HOP-62"
  GI50: "> 100 µM (inactive)"
- COMPOUND: "O=C(O)c1c2c(cc3c(=O)cc(-c4ccccc4)oc13)CCCC2"
  MEASURED_TARGET: "HOP-62"
  GI50: "> 100 µM (inactive)"
- COMPOUND: "CCCCCCn1c(SC)nc(COC(=O)NC)c1COC(=O)NC"
  MEASURED_TARGET: "HOP-62"
  GI50: "19.6 µM (inactive)"
